tested on: K4 kissing-loop RNA reporter; experiment: apparent KD of K4 kissing-loop reporter; higher = weaker reporter binding; settings: Eterna round: R107; input ligand: none;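 note: bound reporter read as fluorescence of individual clusters on recovered sequencing chips by microscopy, with normalized cluster intensities fitted with a binding model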
REPORTED METRIC: apparent KD of K4 kissing-loop reporter (nM)
Express it in nM; write the number only.

Request: Name the recorded apparent KD of K4 kissing-loop reporter of the sequence listed here: AGCAUUUUCAGAAGGAGCGUGAAUUAUUCUUAAUUAUAUUAUACGAGUGAUGUUCGUGUUUCACAGGUAGGUCGCUGAUAUAGCA [JR_SSArginiB_Sub004]
Result: 47.7

Request: Kindly indicate its recorded apparent KD of K4 kissing-loop reporter. Item: GUUCGGAUGCGGGAUACCAGCGUACCGAGCAAGCUUCGGGUAGUGAUGUUAUCUGAAUUACGCCCUUGGCAGCCCGCAUCCGGGC [clock_plus]
Result: 285

Request: // Input: AGCUCAGAGUGACUCGAUAAGAGUCACAAACGAGGACCGGUACGGCCGCCACUCGAAAUAACGAGAGUGAUGUUUUCGCUGAGCA [FiskerMod 6 - Jieux - Same State Tryptophan A] . Output its apparent KD of K4 kissing-loop reporter only.
Result: 857

Request: Find the measured apparent KD of K4 kissing-loop reporter of GCAGGACGAGGAGGAGGAUGAAUUACUGAAGGAGCGCAUAUGGUUGCAGGUAGGUCGCGGUAAACAAGUAUAGUGAUGUUAUAUC [SSArgA.P] and report it.
Result: 552

Request: Provide apparent KD of K4 kissing-loop reporter value for the following sequence: GCGCGUCAUGUCAGCGGUGACUACGUCGAUACCAGCAGGGAAACCUGCCCUUGGCAGCGACGCGCUGGAGUGAUGUUCCGACGGA [#2 Exclusion - Theophylline A Attempt #6 (HarryS)]
Result: 544

Request: State, in one line, measured apparent KD of K4 kissing-loop reporter of AGGAGCGUGGGAUGGAAAUCGCACGCUCCUCGAGGACCGGUACGGCCGCCACUCGCUCGCGCCGAGUGAUGUUCGGCCGGCGAAC [#2 Same State - Tryptophan A Attempt #11 (HarryS)]
Result: 451

Request: For the sequence ACGUAGUUCUAGGAUACCAGCCAAGAAGCCAGGACAAAAGUCCUGGCUGCCAGUGAUGUUGGCCCUUGGCAGCCUAGAACUACGA [Omei KL Theo B Exc B v10] , give its measured apparent KD of K4 kissing-loop reporter value.
Result: 121

Request: Note down apparent KD of K4 kissing-loop reporter recorded for GGUCCGGGCUCGGCCGCCACUCCCUCCUGCCGCAAGGUGGGAUACCGAGUGAUGUUCGGUUGGAGGAGGACCGGGAGCCCGGACC [#2 Exclusion - Tryptophan B Attempt #14 (HarryS)]
Result: 121

Request: Identify the reported apparent KD of K4 kissing-loop reporter for the following entry. AGAGAUAUAUGAGGAUAUGAGUUAGUUAAUGAGUGAGUUUUAGUGUUGUUUGGUUAGUGAUGUUAUUUAGAAGGCGUGAGUGAUG [ttytmullin]
Result: 74.9

Request: // Input: ACUAAGGUUUUUGGAGCAGUGAUGUUGCUCCGAGGACCGGUACGGCCGCCACUCGGUGCAUGUAUGCGCUUCACUCCGGAAGUUG [Bieron] . Output its apparent KD of K4 kissing-loop reporter only.
Result: 165

Request: For the sequence AUAGGAGUGAUGUUCCUUAGUUUCUCCGAUACCAGUAUGGAAACAUACCCUUGGCAGCGGGAGACCGCUGAUUAGGAAACUAGUC [Theophylline A K4 8] , report apparent KD of K4 kissing-loop reporter.
Result: 261

* * *

test system: MS2 coat protein; assay: apparent KD of MS2 coat protein; designed switch direction (-1 OFF switch, 1 ON switch): -1; higher = weaker reporter binding; settings: Eterna round: R95; input ligand: none
Exercise: for every item that follows, state its recorded apparent KD of MS2 coat protein.
Just the number in nM, nothing appended.

Request: Fill in: apparent KD of MS2 coat protein on MS2 coat protein, entry CUGGUCCGAGGAUAUAUUAUGUGAAACAUGAGGAUCACCCAUGUUAUAUGAUGGAUGUAAAUAGAAGGCGGACUAG [JL-ex5-3.14] (puzzle: Exclusion 5)
Result: 40.3

Request: Supply apparent KD of MS2 coat protein measured with MS2 coat protein for GGUACUAACACGAUAGUGUUAGUACAAUAAGCUUGUGUUACAUGAGGAUCACCCAUGUCCUCAUAAGCUCGUCUUAU [Mat - Sensor v3 - Turn-off var 2 - D56] (puzzle: Sensor v3, turn-off variant 2) .
Result: 108

Request: Please respond with reported apparent KD of MS2 coat protein (system MS2 coat protein) for AGUACAUACACGAAAGUGUAUGUACAAUAAGCUUGUGGAACAUGAGGAUCACCCAUGUCCUCAUAAGCUCGUCUUAU [Mat - Sensor v3 - Turn-off var 2 - D30] (puzzle: Sensor v3, turn-off variant 2) .
Result: 15.5

Request: Give reported apparent KD of MS2 coat protein for AAUACCGGUCUGCCUAAAGACAUGAGGAUCACCCAUGUCUGAUUCUCAACAGGCCUUUUGCUUCUCUUAACUACACA [Vetilage] (puzzle: Sensor v3, turn-off variant 1) (MS2 coat protein)
Result: 12.6

Request: Recall the reported apparent KD of MS2 coat protein of CUUAGACAUGAGGAUCACCCAUGUGAGGAUAUGAUGAGGAUAAGGAAGGAAGAAGGAAUCAGAAGGCACAUAUG [Mat - Mod of Hyphema D27] (puzzle: Exclusion 1) on MS2 coat protein and write it down.
Result: 74.2

Request: GET apparent KD of MS2 coat protein where system = MS2 coat protein and item = GAUAGAGAGCAGGAUAUCUUAGAUAUGUAAUAUAGAGAAGGGCUCACAUGAGGAUCACCCAUGUGGUCCUAGAU [JL Dibiri mod 14] (puzzle: Exclusion 6)
Result: 16.1

Request: Find the measured apparent KD of MS2 coat protein of UAGGAGUCAGGAUAUGCGAGAGAUUGAAGUAAGGGAUGAGAGCAGAAGGGACAUGAGGAUCACCCAUGUAAGGA [JR_Exclu4_Sub092] (puzzle: Exclusion 4) with MS2 coat protein as test system.
Result: 52

Request: Recall the reported apparent KD of MS2 coat protein of GGCAAUAACGAGGAUAUCGUAUGGGAAACCAUACGAGAAGGUGUAACAUGAGGAUCACCCAUGUUCCUCAAGCC [Mat - Exclusion 6 - Eli Mod - D66] (puzzle: Exclusion 6) on MS2 coat protein and write it down.
Result: 40

Request: Name the recorded apparent KD of MS2 coat protein of AGAGAGUCAGGAUAUCGGAGGGCGAGGAGAGGAGAGAGAGACGAGAAGGGACAUGAGGAUCACCCAUGUAGGUG [JR_Exclusion4)Sub018] (puzzle: Exclusion 4) , assay system MS2 coat protein.
Result: 400

Request: Look up MS2 coat protein data: apparent KD of MS2 coat protein of AGUAACUAUCACGAAAGUGAUAGUUACAAACAAGUGAAAACAUGAGGAUCACCCAUGUCCUCAUUUGCUCGUCUUAU [Sensor 3 - 7] (puzzle: Sensor v3, turn-off variant 2) , then report it.
Result: 329

Request: State apparent KD of MS2 coat protein (MS2 coat protein) of AAAACUAACACGAAAGUGUUAGAAUAAUAAGCUUGUGGUACAUGAGGAUCACCCAUGUCCUCAUAAGCUCGUCUUAU [Mat - Sensor v3 - Turn-off var 2 - D45] (puzzle: Sensor v3, turn-off variant 2) .
Result: 25.8

Request: Jot down apparent KD of MS2 coat protein (MS2 coat protein) of CUUGUCCGAGGAUAUAUUUUGUGAUACAUGAGGAUCACCCAUGUUAUAAGAUGGAUAUAAAUAGAAGGCGGACGAG [Mat - Exclusion 5 - JL mod - D69] (puzzle: Exclusion 5) .
Result: 47

Request: # return apparent KD of MS2 coat protein for CUGAGCAGACGGAGAUCCAACAUGAGGAUCACCCAUGUCUCAAAAGCUUUUUGCUCAUCUUAUCCUCCUCUGUUCUC [Edcesobi] (puzzle: Sensor v3, turn-off variant 1) , test system: MS2 coat protein
Result: 17.9

Request: Give apparent KD of MS2 coat protein; test system MS2 coat protein; sequence AGUACUAACACGCAUGUGUUAGUACAAUAAGCUUGUGAAACAUGAGGAUCACCCAUGUCCUCAUAAGCUCGUCUUAU [salish99_TOv2_r3_068] (puzzle: Sensor v3, turn-off variant 2)
Result: 16.1

Request: Return reported apparent KD of MS2 coat protein for target or system MS2 coat protein, item UAAAAGGUAGGAUAUACGAAAAAAAAGGGUAGAAAAAAAACACAUGAGGAUCACCCAUGUAGAAGGACCAAAAA [salish99_ex2_r3_049] (puzzle: Exclusion 2) .
Result: 38

Request: Please respond with reported apparent KD of MS2 coat protein (system MS2 coat protein) for AAGAAACGAGGAUAUACAAUUGAGUGAGAGAGGGAAGUGUGACAUGAGGAUCACCCAUGUAGAAGGCGUAAGAG [JR_Exclu2_Sub085] (puzzle: Exclusion 2) .
Result: 73.9

Request: Give apparent KD of MS2 coat protein; test system MS2 coat protein; sequence UGUACUAACACGGAAGUGUUAGUACUAUAAGCUUGUGUUACAUGAGGAUCACCCAUGUCCUCAUAAGCUCGUCUUAU [Mat - Sensor v3 - Turn-off var 2 - D74] (puzzle: Sensor v3, turn-off variant 2)
Result: 172

Request: State measured apparent KD of MS2 coat protein of the sequence AAAUAAUAGAUAAAAUAAAACAUGAGGAUCACCCAUGUAGGCAGAUGAGGGUGAAACAAGCUUUUUGCUCGUCUUAU (puzzle: Sensor v3, turn-off variant 1) with MS2 coat protein.
Result: 75.1

Request: Consider the sequence GAGGACUGAGGAUAUGCGUUGGUACCUCGUAGUAAGCAAAGACAUGAGGAUCACCCAUGUAGAAGGCGGAAAAG [Xegeinenxe] (puzzle: Exclusion 2) tested on MS2 coat protein; state its apparent KD of MS2 coat protein.
Result: 52.6

Request: Please look at AAGAAACAUGAGGAUCACCCAUGUGAGGAUAUGACUAAGAAAAGAAAAGAAAGAAGAAUCAGAAGGCACAAAGG [salish99-ex1_r3_053] (puzzle: Exclusion 1) and tell me its recorded apparent KD of MS2 coat protein on MS2 coat protein.
Result: 49.3
